B1: library; numbered along this chain (parent)
chain: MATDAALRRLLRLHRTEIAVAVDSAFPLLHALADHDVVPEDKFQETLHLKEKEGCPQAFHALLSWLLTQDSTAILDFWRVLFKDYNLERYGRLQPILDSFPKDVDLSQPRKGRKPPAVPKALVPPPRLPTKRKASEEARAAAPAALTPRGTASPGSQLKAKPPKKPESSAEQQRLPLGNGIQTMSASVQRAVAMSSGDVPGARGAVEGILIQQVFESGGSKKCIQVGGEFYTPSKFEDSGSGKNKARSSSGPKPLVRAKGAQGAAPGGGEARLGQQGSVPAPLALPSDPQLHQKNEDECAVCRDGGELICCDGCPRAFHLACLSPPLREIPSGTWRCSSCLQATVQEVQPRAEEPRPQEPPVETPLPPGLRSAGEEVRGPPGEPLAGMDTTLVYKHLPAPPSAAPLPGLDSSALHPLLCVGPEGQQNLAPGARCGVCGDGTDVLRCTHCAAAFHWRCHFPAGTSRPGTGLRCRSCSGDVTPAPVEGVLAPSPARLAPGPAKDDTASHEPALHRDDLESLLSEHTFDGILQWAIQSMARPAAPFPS

Variants of: B1
Experiment: AIRE transcriptional activation functional score (insulin promoter-GFP; nonsense median 0, synonymous median 1) (normalised score); higher = higher AIRE activity (more reporter activation)
Conditions: with insulin promoter-GFP reporter in HEK293
observable: AIRE transcriptional activation functional score
Please reply with the value in numeric form only.

Worked examples follow.
variantAnnotation: A489C
measValue: 1.19
//
variantAnnotation: P109W
measValue: 0.0143
//
variantAnnotation: A500W
measValue: 1.42
//
variantAnnotation: F543A
measValue: 0.367
//
variantAnnotation: Q108A
measValue: 0.176
//
variantAnnotation: E171P
measValue: 1.23

Let us move to another entry and its AIRE transcriptional activation functional score.
input: Entry A160N : reported AIRE transcriptional activation functional score = ?
output: 0.242
